B1: MYOZ1 (parent)
chain: FSDSSMDHFQKFLPTVGGQLGTAG

Variants of: B1
method-description: protein stability index of a GFP-peptide fusion (GPS, HEK-293T) (PSI 1-6); higher = more stable;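 also: lentivirally expressed fusions sorted by FACS into six bins by GFP to DsRed ratio, PSI derived from sequencing read proportions per bin multiplied by bin number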
condition-summary: c terminus: a fixed tail appended
Below, each of the variants is paired with its reported protein stability index value.
Just the number, please, no unit after it.

Here is how some variants turned out for protein stability index.
variant-id	val
K11F	2.07
S4P	2.42
F12G	3.15
L13R	2.92
F1Y	2.83
G24E	2.54
T22G	2.09
T22W	1.43
L13D	3.44
F12R	3.5

Exam item: Quick one: protein stability index for P14R ?
Marked response: 1.44

Exam item: Quick check: protein stability index of G17M ?
Marked response: 2.06

Sourced from the supplement of paper PMC10567573
